Tested on: Aerobactin synthetase IucA (Klebsiella pneumoniae hvKP1)
experiment.notes: Biochemical IucA enzyme inhibition primary screen of the Spectrum library (AID 1346200);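 note: 100% = wells without compound and 0% = wells lacking enzyme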
test.parameters: malachite green pyrophosphate, A620, at 8 µM, hits give low values
Calls of active or inactive are those of the source. The rule behind the calls is not given here.
This listing pairs molecules with measured activity remaining.

- molecule: "COc1ccc2c(c1)[C@]13CCCC[C@H]1[C@H](C2)N(C)CC3"
  target.or.test.system: "Aerobactin synthetase IucA (Klebsiella pneumoniae hvKP1)"
  activity remaining: "115% (inactive)"
- molecule: "NCC1CCC(C(=O)O)CC1 (configuration not stated)"
  target.or.test.system: "Aerobactin synthetase IucA (Klebsiella pneumoniae hvKP1)"
  activity remaining: "102% (inactive)"
- molecule: "COc1ccc(-c2coc3cc(O)ccc3c2=O)c(OC)c1"
  target.or.test.system: "Aerobactin synthetase IucA (Klebsiella pneumoniae hvKP1)"
  activity remaining: "111% (inactive)"

Query :: Look up activity remaining: CC(=O)OCC(=O)[C@@]1(O)[C@H](C)CC2C3CCC4=CC(=O)C=C[C@]4(C)[C@@]3(F)[C@@H](O)C[C@@]21C (some centres not stated)
Result :: 119% (inactive)

Query :: Look up activity remaining: CCCCCCCCNC(C)C(O)c1ccc(SC(C)C)cc1 (configuration not stated)
Result :: 114% (inactive)

Query :: Look up activity remaining: "C[C@H]1COC2=C1C(=O)C(=O)c1c2ccc2c1CCCC2(C)C"
Result :: 106% (inactive)

Query :: Look up activity remaining: "O=C1CCc2cc(OCCCCc3nnnn3C3CCCCC3)ccc2N1"
Result :: 117% (inactive)

Query :: Look up activity remaining: "CC(C)c1cccc(C(C)C)c1O"
Result :: 114% (inactive)

Query :: Look up activity remaining: "CCN(CCCc1ccccc1)CCCc1ccccc1"
Result :: 109% (inactive)

Query :: Look up activity remaining: "COc1cccc(O)c1O"
Result :: 110% (inactive)

Query :: Look up activity remaining: "S=c1nc[nH]c2nc[nH]c12"
Result :: 120% (inactive)

Query :: Look up activity remaining: "N#Cc1c(Cl)cccc1Cl"
Result :: 93.8% (inactive)

Query :: Look up activity remaining: "COc1ccc(-c2oc3cc(OC)c(OC)c(OC)c3c(=O)c2OC)cc1"
Result :: 115% (inactive)

Query :: Look up activity remaining: "CC(=O)OC/C=C(\C)CC/C=C(\C)CC/C=C(\C)CC/C=C(\C)CC/C=C(\C)CC/C=C(\C)CC/C=C(\C)CC/C=C(\C)CCC=C(C)C"
Result :: 120% (inactive)

Query :: Look up activity remaining: FC(F)(F)C(Cl)Br (configuration not stated)
Result :: 106% (inactive)

Query :: Look up activity remaining: CC1(C)N([O-])[N+](=O)C1(C)Br (configuration not stated)
Result :: 96.6% (inactive)

Query :: Look up activity remaining: C[C@H]1[C@H](C)CC[C@]2(C(=O)O)CC[C@]3(C)C(=CCC4[C@@]5(C)C[C@@H](O)[C@H](O)[C@@](C)(CO)C5[C@H](O)C[C@]43C)[C@H]12 (some centres not stated)
Result :: 110% (inactive)

Query :: Look up activity remaining: "CC(=O)c1ccc[nH]1"
Result :: 98.2% (inactive)

Query :: Look up activity remaining: C[C@H]1OC(O[C@H]2[C@@H](O)CC(O[C@H]3[C@@H](O)C[C@H](O[C@H]4CC[C@]5(C)C6CC[C@]7(C)[C@@H](C8=CC(=O)OC8)[C@@H](O)C[C@]7(O)[C@@H]6CC[C@@H]5C4)O[C@@H]3C)O[C@@H]2C)C[C@H](O)C1O (some centres not stated)
Result :: 115% (inactive)

Query :: Look up activity remaining: "CC(=O)NCCCS(=O)(=O)O"
Result :: 103% (inactive)

Query :: Look up activity remaining: CCCCC(=O)O[C@]1(C(=O)CO)CCC2C3CCC4=CC(=O)CC[C@]4(C)C3[C@@H](O)C[C@@]21C (some centres not stated)
Result :: 111% (inactive)

Query :: Look up activity remaining: "O=C(O)c1cc(O)c2c(c1)[C@@H]([C@H]1c3cc(C(=O)O)cc(O)c3C(=O)c3c(O[C@H]4O[C@H](CO)[C@@H](O)[C@H](O)[C@H]4O)cccc31)c1cccc(O[C@H]3O[C@H](CO)[C@@H](O)[C@H](O)[C@H]3O)c1C2=O"
Result :: 98.9% (inactive)
